Each item that follows carries a reported GI50.
- Tested on: NCI-H460
- experiment-notes: NCI tumour cell line growth inhibition, 48 h
Calls of active or inactive are those of the source. Cut-off read from the data, not from the text of the source: active = GI50 up to about 1.1 µM and inactive = higher.

CC(=O)OCC1OC(n2c(=S)n(-c3ccccc3)c(=O)c3cc(Br)ccc32)C(OC(C)=O)C1OC(C)=O (centres undefined)
> 100 µM (inactive)
CNC(=O)N(C)COC
> 100 µM (inactive)
COc1ccc(CN(Cc2ccc(OC)cc2)C(=O)CC2(O)CCc3ccccc3C2)cc1 (centres undefined)
44 µM (inactive)
Cc1cc(N(CCC#N)CCC#N)ccc1/C=C(\N=[N+]=[N-])C(=O)NC(=O)COc1ccccc1
> 100 µM (inactive)
CCOC(=O)CCC(NC(=O)c1ccc(Oc2nc3ccccc3nc2-c2ccccc2)cc1)C(=O)OCC (centres undefined)
> 80.4 µM (inactive)

query: Identify measured GI50 associated with COC(=O)/C=C(/C(=O)OC)C1(C)c2cc(C(=O)OC)c(C(=O)OC)c(N)c2C(=N)N1c1ccccc1 (centres undefined)
result: 39.5 µM (inactive)

query: Could you please provide reported GI50 for CC(C)(C)OC(=O)NC(Cc1c[nH]cn1)C(=O)N1CCCC1C(N)=O (centres undefined) ? Thanks!
result: > 100 µM (inactive)

query: Could you please provide reported GI50 for Cc1cc2c(c(/C=N/Cc3ccccc3)c1)OC1(C=C2)Oc2ccccc2C(=O)N1C (centres undefined) ? Thanks!
result: 25.1 µM (inactive)

query: Give reported GI50 value for O=S1(=O)[C@H](c2ccccc2)c2c(-c3ccccc3)sc(-c3ccccc3)c2[C@@H]1c1ccccc1
result: > 100 µM (inactive)

----------
- Tested on: MDA-MB-435
- experiment-notes: NCI tumour cell line growth inhibition, 48 h
Active and inactive are the calls of the source. Cut-off read from the data, not from the text of the source: active = GI50 up to about 1.1 µM and inactive = higher.
The following compounds are shown together with reported GI50 values.

Some entries whose results are on file:
c1ccc(/N=C(/Nc2ccccc2)N2CCCC2)cc1
> 100 µM (inactive)
N=C(N)SCc1cccc(-c2nc3ccccc3c(=O)o2)c1
> 100 µM (inactive)
Cc1ccc(NC(=O)c2cccc(OP(=O)(Nc3ccc(C)cc3)Nc3ccc(C)cc3)c2)cc1
7.48 µM (inactive)

query: Identify the reported GI50 for the following entry. Cn1c2ccccc2n2c3nc4ccccc4nc3c(C#N)c12
result: > 85.7 µM (inactive)

query: Provide GI50 value for the following compound: COc1ccccc1N1C(=O)CSC1c1c[nH]c2ccccc12 (stereo unspecified)
result: > 100 µM (inactive)

query: Name the recorded GI50 of the item CC1(C)OC(=O)N(c2ccccc2)C12C=Cc1cc([N+](=O)[O-])ccc1O2 (stereo unspecified) in your answer.
result: 20 µM (inactive)

----------
- System: SK-MEL-5
- experiment-notes: NCI tumour cell line growth inhibition, 48 h
The source made the active and inactive calls. Cut-off read from the data, not from the text of the source: active = GI50 up to about 1.1 µM and inactive = higher. Peptide text beside a SMILES is read from it.
parameter-measured: GI50

Examples with their reported GI50 follow.
CC(C)CC(NC(=O)C(CC(C)C)NC(=O)C(Cc1c[nH]cn1)NC(=O)C(C)NC(=O)C(NC(=O)C(C)NC(=O)C(Cc1c[nH]c2ccccc12)NC(=O)C(CCC(=O)O)NC(=O)C(N)Cc1ccccc1)C(C)C)C(N)=O (stereo not drawn) (H-FEWAVAHLL-NH2; configuration not given here)
> 12.5 µM (inactive)
CCOC(=O)/C(C(=S)NC)=C(/N)N1CCCC1
> 100 µM (inactive)
Cc1cn(Cc2cn(CC3OC(n4cc(C)c(=O)[nH]c4=O)CC3O)nn2)c(=O)[nH]c1=O (stereo not drawn)
> 100 µM (inactive)
N#Cc1ccc(N2CCOCC2)cc1
> 100 µM (inactive)
COc1c(/C=C/C(C)(C)O)cc(C2CC(=O)c3c(O)cc(O)cc3O2)cc1CC=C(C)C (stereo not drawn)
8.47 µM (inactive)
CC(C)OC(=O)C1(C(C)C)CCc2ccc(C(=O)CCC(=O)O)cc21 (stereo not drawn)
> 100 µM (inactive)
Cc1c(C(=O)N2CCN(c3ccc([N+](=O)[O-])cc3)CC2)[n+]([O-])c2cc(Cl)c(Cl)cc2[n+]1[O-]
10.9 µM (inactive)

Now for another entry.
query: Give a short answer stating reported GI50 for C=CCC1(CN(C)C)CC/C(=C\c2ccc(OC)cc2)C1=O (stereo not drawn) .
result: 41.5 µM (inactive)

----------
# maps each entry to its GI50
- Tested on: HOP-92
- experiment-notes: NCI tumour cell line growth inhibition, 48 h
Calls of active or inactive are those of the source. Rule as the data show it: active = GI50 up to about 1.1 µM and inactive = higher.

For orientation, consider the following solved cases.
Cc1ncc(-c2nnnn2-c2ccccc2)c(C(=O)O)n1
> 100 µM (inactive)
O=C(O)c1ccc(Nc2nc3ccc(C(F)(F)F)cc3nc2C(=O)O)cc1
> 100 µM (inactive)
CC(=O)NC1C(O)C(O)C(CO)OC1n1nc(SCc2ccccc2)c(=O)[nH]c1=O (centres undefined)
> 100 µM (inactive)
Cc1cccc(CNNC(=O)c2cc[n+]([BH2-]C#N)cc2)c1
4.47 µM (inactive)
O=S1(=O)[C@H](c2ccccc2)c2c(-c3ccccc3)sc(-c3ccccc3)c2[C@@H]1c1ccccc1
27 µM (inactive)
Cc1cccc(NC2=NC(=O)C(CC(=O)Nc3cccc(C)c3C)S2)c1 (centres undefined)
21.2 µM (inactive)

query: Give me measured GI50, please, for this molecule: O=C(/C=C/c1c(O)ccc2ccccc12)c1ccc([N+](=O)[O-])cc1
result: 16.1 µM (inactive)

query: Specify reported GI50 for the molecule shown: COc1ccc2c3c1OC1c4[nH]c5ccccc5c4CC4(O)C(C2)N(C)CCC314 (centres undefined)
result: 14.3 µM (inactive)

query: Return GI50 (reported value) for this molecule: CNC(=O)OCc1cc2ccncc2c2c1[nH]c1ccccc12
result: > 100 µM (inactive)

query: Quickly give me recorded GI50 for Clc1ccc(-c2c(C3=NCCN3)nnn2-c2ccccc2)cc1
result: 92 µM (inactive)

query: Name the recorded GI50 of the molecule listed here: COc1ccc(/C(Cl)=C(\C=N/O)c2ccc(OC)c(OC)c2)cc1OC
result: 63.4 µM (inactive)

----------
- System: U-251
- experiment-notes: NCI tumour cell line growth inhibition, 48 h
Activity calls are given as the source filed them. No stated cut-off is given here; in the data, active = GI50 up to about 1.1 µM and inactive = higher.
# GI50 values compiled below

The cases that follow already have their GI50 on record.
COc1ccccc1N1C(=O)CSC1c1c[nH]c2ccccc12 (stereo unspecified)
> 100 µM (inactive)
COc1ccc(C(=O)C(CO)Oc2ccccc2OC)cc1OC (stereo unspecified)
> 100 µM (inactive)
COc1ccc(/C=C2\CCC(CN3CCOCC3)C2=O)cc1 (stereo unspecified)
17.3 µM (inactive)
CC(C)(C)OC(=O)NC1CCC[C@H]1O (stereo partly specified)
> 100 µM (inactive)
COc1cccc2[nH]c(-c3ccccn3)nc12
> 100 µM (inactive)

query: Name the recorded GI50 of the item CCCCC(=O)OC[n+]1ccc(-c2c(COC(=O)NC(C)C)c(COC(=O)NC(C)C)c3n2CCC3)cc1 in your answer.
result: > 71.3 µM (inactive)

query: Kindly indicate its recorded GI50. Item: COC(C(=O)NN)c1ccccc1 (stereo unspecified)
result: > 100 µM (inactive)

query: Supply reported GI50 belonging to this molecule: CC1CC2CC(=O)CC3(C1)C2CCCN3CCCO (stereo unspecified)
result: > 100 µM (inactive)

query: Using known records, supply GI50 for CCCCC(=O)OC[n+]1cccc(-c2c(COC(=O)NC(C)C)c(COC(=O)NC(C)C)c3n2CCC3)c1
result: 45.3 µM (inactive)

query: Provide measured GI50 value, entry: CCOC(=O)C(C#N)C1=CC(=O)C(=O)c2ccc(O)cc21 (stereo unspecified)
result: 48.5 µM (inactive)

query: Consider the molecule CC1=NN(C(=O)CSc2nnc(SCC(=O)N3N=C(C)CC3(O)c3ccccc3)s2)C(O)(c2ccccc2)C1 (stereo unspecified) and give its recorded GI50.
result: > 100 µM (inactive)

----------
- Test system: OVCAR-5
- experiment-notes: NCI tumour cell line growth inhibition, 48 h
Activity calls are given as the source filed them. Cut-off read from the data, not from the text of the source: active = GI50 up to about 1.1 µM and inactive = higher.
parameter-measured: GI50

As a guide, the following entries are already answered.
Cn1c(C2CC(C)(C)c3c2c2ccccc2n3C)cc2ccccc21 (stereo not given)
> 304 µM (inactive)
Cn1c(-c2c(C3=CC(=O)N(c4ccccc4)C3=O)c3ccccc3n2C)cc2ccccc21
> 100 µM (inactive)
c1ccc(/N=C(/Nc2ccccc2)N2CCCC2)cc1
> 100 µM (inactive)

query: Indicate its recorded GI50; the molecule in question is COc1ccc(/C=C2\CCC(CN3CCOCC3)C2=O)cc1 (stereo not given)
result: 9.06 µM (inactive)

query: Supply reported GI50 belonging to this molecule: COc1cc(/C=C/C(C)=O)ccc1OP(=O)(O)O
result: > 100 µM (inactive)

query: Provide measured GI50 value, entry: CCC(C)[C@@H](NCc1ccccc1)[C@H](OCc1ccccc1)[C@@H]1COC(C)(C)O1 (stereo not given in full)
result: 26.1 µM (inactive)

query: Please supply the value of reported GI50 for the item COC[C@@H](/N=C/c1ccc([N+](=O)[O-])cc1)C(C)C
result: > 100 µM (inactive)

query: Please give measured GI50 of the following entry: CC1(C)CC[C@]2(C(=O)O)CC[C@]3(C)C(=CC[C@@H]4[C@@]5(C)CC[C@@H]6OC(C)(C)OC[C@@]6(C)[C@@H]5CC[C@]43C)[C@H]2C1
result: 16.8 µM (inactive)

query: State its GI50 for this molecule: Cn1c(=O)c2nc(N3CCCCC3)cnc2n(C)c1=O
result: > 100 µM (inactive)
